Data provenance is ChEMBL document CHEMBL3988442.

species on record: Homo sapiens; experiment: To identify inhibition of the IFN signalling (Jak-Stat) pathway via expression of an eGFP reporter gene under the control of an IFN-stimulated response element (ISRE) containing MxA promoter.; assay type: functional; parameters: scale not given: direction of the effect not stated beside the values; conditions: 30 µM
recorded metric: Percent Effect (%)
Write it as a number; the unit % goes unstated.

Solved cases below.
compound	Percent Effect (%)
O=C(c1cscn1)N1CC[C@]2(C[C@@H](OCCN3CCCC3)CO2)C1	7.58
Cc1nnc(C2Cc3ccccc3CN2Cc2ncc(C(C)(C)C)o2)o1 (centres undefined)	27.9
Cc1ccc([C@]2(O)CC[C@H]3CN(Cc4cc(C)c(O)c(C)c4)C[C@H]32)nc1	11.6
Cc1nnc(N2CCOC(Cn3cccn3)C2)c(C#N)c1C (centres undefined)	-3.56

## Task I have this compound here, O=C(N[C@@H]1CN(Cc2ccc3c(c2)OCO3)[C@@H]2CCCO[C@@H]21)C1CC1 , and I need its recorded Percent Effect.
## Result 4.07

---

Parameter Percent Effect: see the listing below.
Biological target: Ubiquitin-activating enzyme e1, putative (Leishmania donovani (strain BPK282A1))
Sequence (whole entry): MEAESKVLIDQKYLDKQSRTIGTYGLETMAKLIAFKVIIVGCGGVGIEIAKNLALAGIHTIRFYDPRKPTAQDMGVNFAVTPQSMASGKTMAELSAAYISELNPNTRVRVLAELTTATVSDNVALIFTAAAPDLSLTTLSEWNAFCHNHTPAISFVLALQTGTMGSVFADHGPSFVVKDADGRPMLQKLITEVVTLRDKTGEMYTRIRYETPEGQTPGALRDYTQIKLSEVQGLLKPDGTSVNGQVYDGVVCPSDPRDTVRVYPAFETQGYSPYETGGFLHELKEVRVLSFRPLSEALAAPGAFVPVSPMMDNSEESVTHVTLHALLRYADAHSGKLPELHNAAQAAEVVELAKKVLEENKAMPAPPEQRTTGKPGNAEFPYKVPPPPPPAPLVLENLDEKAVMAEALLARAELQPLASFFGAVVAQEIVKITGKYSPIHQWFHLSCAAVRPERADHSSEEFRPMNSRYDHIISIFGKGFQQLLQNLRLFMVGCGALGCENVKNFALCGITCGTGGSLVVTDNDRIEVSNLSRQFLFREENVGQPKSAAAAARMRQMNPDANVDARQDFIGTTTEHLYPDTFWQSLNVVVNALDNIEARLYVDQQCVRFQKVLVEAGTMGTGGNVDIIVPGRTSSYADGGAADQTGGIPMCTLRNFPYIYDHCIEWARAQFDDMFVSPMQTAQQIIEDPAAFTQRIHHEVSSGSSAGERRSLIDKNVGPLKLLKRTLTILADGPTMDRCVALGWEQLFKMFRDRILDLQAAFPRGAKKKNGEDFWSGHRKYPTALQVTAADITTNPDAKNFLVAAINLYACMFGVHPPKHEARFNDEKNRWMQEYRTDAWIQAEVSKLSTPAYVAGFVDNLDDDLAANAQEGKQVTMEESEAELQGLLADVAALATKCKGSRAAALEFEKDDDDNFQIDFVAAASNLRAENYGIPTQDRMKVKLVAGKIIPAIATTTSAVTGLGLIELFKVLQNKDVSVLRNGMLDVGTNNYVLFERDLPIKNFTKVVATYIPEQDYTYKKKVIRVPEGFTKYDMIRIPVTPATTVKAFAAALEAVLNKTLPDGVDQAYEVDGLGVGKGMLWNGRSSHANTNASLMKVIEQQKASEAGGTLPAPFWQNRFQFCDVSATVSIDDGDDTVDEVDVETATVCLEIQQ
Experiment: Leishmania donovani Ubiquitin Activating Enzyme (LdE1)
Format: functional
Set-up: scale not given: direction of the effect not stated beside the values
Settings: 30 µM
Entries with a potency or affinity are not part of this list.
Note: unit % is implicit; provide only the numeric part.

For orientation, consider the following solved cases.
compound	Percent Effect / %
CCCNC(=O)c1sccc1N(C)S(=O)(=O)c1ccc(Cl)cc1	7.89
COc1cccc(-n2c(C)cc(C(=O)NS(C)(=O)=O)c2C)c1	20.2

## Task # Percent Effect lookup, item c1csc(-c2nc(CN3CCOC(Cn4cncn4)C3)cs2)c1 (stereo not drawn)
## Result 7.89

---

Target: Tyrosyl-tRNA synthetase, putative (Trypanosoma cruzi (strain CL Brener)) (UniProt Q4DSP6)
Sequence (whole entry): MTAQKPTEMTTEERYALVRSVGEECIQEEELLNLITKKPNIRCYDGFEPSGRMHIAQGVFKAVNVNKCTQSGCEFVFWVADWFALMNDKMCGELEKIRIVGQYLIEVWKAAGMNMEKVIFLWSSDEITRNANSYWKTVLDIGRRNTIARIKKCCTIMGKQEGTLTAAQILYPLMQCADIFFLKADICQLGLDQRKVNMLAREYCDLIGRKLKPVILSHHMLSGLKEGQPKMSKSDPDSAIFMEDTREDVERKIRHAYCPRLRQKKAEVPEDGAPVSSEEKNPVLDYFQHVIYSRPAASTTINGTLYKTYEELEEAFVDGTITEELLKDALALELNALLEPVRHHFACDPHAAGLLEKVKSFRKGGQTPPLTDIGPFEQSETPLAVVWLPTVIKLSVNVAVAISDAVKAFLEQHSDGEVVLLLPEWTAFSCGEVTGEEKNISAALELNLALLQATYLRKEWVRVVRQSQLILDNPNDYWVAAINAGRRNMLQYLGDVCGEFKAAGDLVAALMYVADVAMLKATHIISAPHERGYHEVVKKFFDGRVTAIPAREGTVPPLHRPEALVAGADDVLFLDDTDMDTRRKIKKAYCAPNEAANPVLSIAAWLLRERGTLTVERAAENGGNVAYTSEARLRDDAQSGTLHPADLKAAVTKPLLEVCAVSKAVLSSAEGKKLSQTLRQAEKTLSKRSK
Experiment: Trypanosoma cruzi tyrosyl tRNA synthetase (TcYRS) _High Tyrosine SOP; further: in the data most compounds retested in dose-response had high values
Assay type: functional
Set-up: scale not given: direction of the effect not stated beside the values
Settings: 30 µM
recorded metric: Percent Effect (%)
Numbers only; they are read as %.

compound	Percent Effect (%)
COc1c(CNCc2ccc(C(=O)N(C)C)cc2)c(C)nn1C	3.12
CC(C)n1cnc2c1C(C(=O)NCCC#N)N(Cc1ccccc1)CC2 (stereo not given)	2.08

## Task Query (compound): CCc1ccc(C(=O)NC2CCN(c3cnn(C)c3)C2=O)o1 (stereo not given) ; field requested: Percent Effect
## Result 3.23

## Task # Percent Effect lookup, item Cc1nc(C)n(CC2CCCCN2CC(=O)N(C)Cc2ccco2)n1 (stereo not given)
## Result 0

## Task Consider the compound shown here: Fc1cccc(Oc2ccc(CNCC3CNc4ccnn4C3)cn2)c1 (stereo not given) What is its recorded Percent Effect?
## Result 37.9

---

molecular target: Sialic acid-binding Ig-like lectin 9 (Homo sapiens) (UniProt Q9Y336); assay: Hs-Siglec9 ALPHAscreen SOP 20170721; design: scale not given: direction of the effect not stated beside the values; details: 10 µM
Sequence (Q9Y336 whole entry): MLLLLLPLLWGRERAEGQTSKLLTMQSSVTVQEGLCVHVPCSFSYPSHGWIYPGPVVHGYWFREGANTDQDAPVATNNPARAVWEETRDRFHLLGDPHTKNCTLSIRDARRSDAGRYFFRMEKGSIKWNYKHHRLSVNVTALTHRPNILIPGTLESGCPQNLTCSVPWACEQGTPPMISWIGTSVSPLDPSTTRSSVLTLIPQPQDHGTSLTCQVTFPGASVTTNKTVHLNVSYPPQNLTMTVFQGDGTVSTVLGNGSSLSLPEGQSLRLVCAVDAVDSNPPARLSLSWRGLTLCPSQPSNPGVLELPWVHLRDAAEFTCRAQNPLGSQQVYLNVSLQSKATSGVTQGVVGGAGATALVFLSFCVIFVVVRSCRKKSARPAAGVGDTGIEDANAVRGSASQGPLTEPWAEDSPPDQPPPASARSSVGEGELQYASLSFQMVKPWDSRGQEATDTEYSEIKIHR
Percent Effect values, listed per item
Unit % implied. Number only.

compound	target or test system	readout units	Percent Effect
Cc1nccc(C2CN(Cc3cc[nH]n3)CCO2)n1 (centres undefined)	Sialic acid-binding Ig-like lectin 9 (Homo sapiens) (UniProt Q9Y336)	%	3.04

## Task I have this compound here, CC(C)c1nccn1C1CCCN(C(=O)c2cnc[nH]2)C1 (centres undefined) , and I need its recorded Percent Effect.
## Result 16.2

## Task If you can, please state the reported Percent Effect value of CCn1nc(C)c2nc(C(C)C)nc(NCCCO)c21 .
## Result 13.2

## Task I'd like to know its Percent Effect. The compound in question is Cc1cc(NC(=O)CCN2CCCC2Cn2cncn2)no1 (centres undefined)
## Result 2.13

## Task // lookup Percent Effect for CCC1CN(CC(=O)N2CCC2)CCN1CCOC (centres undefined)
## Result 13.2

## Task What does the record list as Percent Effect for Cc1cccnc1NC(=O)C1CCCN1Cc1ccccc1 (centres undefined) ?
## Result -2.53

## Task Item Cc1cc(CN2CCN(C(=O)NC(C)Cn3ccnc3)CC2)no1 (centres undefined) has what recorded Percent Effect?
## Result 7.81

## Task Name the recorded Percent Effect for COCc1nc(C(=O)N2CCCCC2Cn2cccn2)cs1 (centres undefined) .
## Result -2.08

## Task Looking for the measured Percent Effect of O=C(NCC1CCN(Cc2ccsc2)CC1)NC1CC1 , can you help?
## Result -0.902

## Task Field request: Percent Effect | item: CC1CCN(Cc2cnc(S(=O)(=O)CC3CC3)n2CC2CCCO2)CC1 (centres undefined)
## Result 0.164

---

target: Chromo domain-containing protein 1 (Saccharomyces cerevisiae (strain ATCC 204508 / S288c) (Baker's yeast)) (UniProt P32657); experiment: ScCHD-1 Enzyme Inhibition Assay; type: functional; parameters: scale not given: in the data most compounds retested in dose-response had high values; conditions: 30 µM
Sequence (P32657 whole entry, the tested form may be a part): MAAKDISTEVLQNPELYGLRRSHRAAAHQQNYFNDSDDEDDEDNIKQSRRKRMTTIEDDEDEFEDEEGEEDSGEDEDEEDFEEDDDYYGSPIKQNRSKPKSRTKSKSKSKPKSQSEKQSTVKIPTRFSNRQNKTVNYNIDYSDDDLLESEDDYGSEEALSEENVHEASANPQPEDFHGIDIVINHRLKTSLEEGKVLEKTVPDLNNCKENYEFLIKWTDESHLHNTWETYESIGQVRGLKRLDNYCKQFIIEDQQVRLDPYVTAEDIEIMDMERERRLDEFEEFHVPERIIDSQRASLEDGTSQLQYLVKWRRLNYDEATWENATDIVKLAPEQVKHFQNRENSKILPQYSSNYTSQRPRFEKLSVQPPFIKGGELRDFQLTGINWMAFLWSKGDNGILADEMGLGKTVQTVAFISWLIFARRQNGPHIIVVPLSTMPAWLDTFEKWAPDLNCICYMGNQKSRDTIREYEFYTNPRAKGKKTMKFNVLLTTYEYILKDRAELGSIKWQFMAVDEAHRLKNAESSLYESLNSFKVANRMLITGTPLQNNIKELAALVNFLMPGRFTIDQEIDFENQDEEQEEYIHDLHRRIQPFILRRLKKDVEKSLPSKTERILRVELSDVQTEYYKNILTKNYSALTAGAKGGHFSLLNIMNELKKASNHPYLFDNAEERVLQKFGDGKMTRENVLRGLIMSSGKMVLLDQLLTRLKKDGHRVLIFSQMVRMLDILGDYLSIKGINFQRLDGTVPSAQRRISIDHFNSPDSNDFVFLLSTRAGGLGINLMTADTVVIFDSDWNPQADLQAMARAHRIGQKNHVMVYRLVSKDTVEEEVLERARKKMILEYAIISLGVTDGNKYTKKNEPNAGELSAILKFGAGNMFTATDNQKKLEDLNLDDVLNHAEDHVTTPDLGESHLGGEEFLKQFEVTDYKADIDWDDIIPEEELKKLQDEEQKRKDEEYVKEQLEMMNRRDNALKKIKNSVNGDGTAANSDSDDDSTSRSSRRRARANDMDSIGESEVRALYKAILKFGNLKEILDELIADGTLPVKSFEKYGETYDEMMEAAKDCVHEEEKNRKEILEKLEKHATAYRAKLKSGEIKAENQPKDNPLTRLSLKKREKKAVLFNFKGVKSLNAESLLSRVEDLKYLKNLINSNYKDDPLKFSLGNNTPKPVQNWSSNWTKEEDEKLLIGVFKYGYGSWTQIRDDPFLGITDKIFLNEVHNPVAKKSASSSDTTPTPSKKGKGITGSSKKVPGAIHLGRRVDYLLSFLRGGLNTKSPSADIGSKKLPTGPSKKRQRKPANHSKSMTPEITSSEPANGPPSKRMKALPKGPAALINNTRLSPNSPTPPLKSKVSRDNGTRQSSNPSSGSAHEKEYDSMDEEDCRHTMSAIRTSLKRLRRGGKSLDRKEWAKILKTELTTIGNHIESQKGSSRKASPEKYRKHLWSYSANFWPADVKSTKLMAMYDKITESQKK
recorded metric: Percent Effect (%)
The reply should be a number in %, with the unit left off.

compound	Percent Effect / %
Cc1cccc(-c2ccc(C(=O)NCC3CCOC3)c(=O)[nH]2)c1 (stereo not given)	-8.03
COc1ccccc1CN(C)C(=O)c1cc(CN2CCC(O)CC2)on1	100
CO[C@H]1CN(Cc2cccc(C#N)c2)[C@@H]2COC[C@H]12	-5.96
CC(C)CNC(=O)[C@H]1CCS(=O)(=O)[C@@H]2CN(Cc3ccc(Cl)cc3)C[C@H]12	-1.05
Cc1n[nH]c(C2CN(C(=O)c3ccco3)CCO2)n1 (stereo not given)	-0.969

## Task Data request, read-out Percent Effect, for COc1ccccc1N1CCC(CNCc2cccc(C#N)c2)C1 (stereo not given)
## Result 10.3

## Task Please report the recorded Percent Effect for COc1ccccc1OCc1cc(C(=O)N2CC=CC2C(C)C)n[nH]1 (stereo not given) .
## Result -2.27

## Task Fill in the blank: the reported Percent Effect of Cc1nc(NCc2cccnc2)c2c(n1)c(C)nn2C is ____.
## Result -2.21
